Answer each item with its documented IC50.
Measurement Target: GRK6, recombinant full-length GST-tagged human protein (Homo sapiens)
Construct: GRK6, recombinant full-length GST-tagged human protein; GST
Sequence (P43250 whole entry): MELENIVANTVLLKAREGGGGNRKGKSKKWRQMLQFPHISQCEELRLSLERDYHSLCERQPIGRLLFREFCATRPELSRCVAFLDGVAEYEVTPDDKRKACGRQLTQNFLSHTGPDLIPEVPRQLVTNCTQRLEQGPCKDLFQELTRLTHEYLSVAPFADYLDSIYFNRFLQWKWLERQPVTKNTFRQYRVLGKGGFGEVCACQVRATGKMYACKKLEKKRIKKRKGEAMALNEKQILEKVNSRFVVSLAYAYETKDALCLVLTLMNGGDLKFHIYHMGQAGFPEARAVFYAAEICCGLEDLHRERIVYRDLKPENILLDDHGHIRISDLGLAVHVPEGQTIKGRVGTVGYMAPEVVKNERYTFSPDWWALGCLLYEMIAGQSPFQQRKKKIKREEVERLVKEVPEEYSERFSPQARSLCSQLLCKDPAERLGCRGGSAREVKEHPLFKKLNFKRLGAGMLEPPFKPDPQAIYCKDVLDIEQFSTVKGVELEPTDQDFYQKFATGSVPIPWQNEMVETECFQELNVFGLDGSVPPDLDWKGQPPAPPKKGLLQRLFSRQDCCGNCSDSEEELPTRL
Method Description: GRK6 IC50 determination (8-point concentration-response)
Assay type: biochemical
The answer is to be given in nM; state only the numeric part.

// recorded IC50 for Cc1cc(-c2cc(-c3ccc4ccccc4c3)cc(-c3nnc(SCC(=O)O)[nH]3)c2)cnc1C : 598

Noted for Cc1c(-c2cc(-c3nnc(SCC(=O)O)[nH]3)cc([N+](=O)[O-])c2)cnn1C : its IC50 reads 797

get_value(item= COc1ccc2cc(-c3nnc(SCC(=O)O)[nH]3)ccc2c1 , readout=IC50) returns 653

Form field IC50, entry COc1cncc(-c2cc(-c3ccc4ccccc4c3)cc(-c3nnc(SCC(=O)O)[nH]3)c2)c1 : 461

Per the record, Cc1c(-c2cc(-c3nnc(SCC(=O)O)[nH]3)cc([N+](=O)[O-])c2)ccc2[nH]c(C#N)cc12 has IC50 of 402

Please fill in: IC50 reported for O=C(O)CSc1nnc(-c2cc(-c3ccc4[nH]ccc4c3)cc([N+](=O)[O-])c2)[nH]1 = 73.9

Measured IC50 of O=C(O)CSc1nnc(-c2cccc(C(=O)Nc3ccccc3)c2)[nH]1 : 11800

// field: IC50; key: Cc1nn(C)c(C)c1-c1cc(-c2nnc(SCC(=O)O)[nH]2)cc([N+](=O)[O-])c1 ; value = 1570

Looking up O=C(O)CSc1nnc(-c2cc(OCc3ccccc3)cc([N+](=O)[O-])c2)[nH]1 , I found its IC50 recorded as 695

Noted for O=C(O)CSc1nnc(-c2cccc(C(=O)Nc3ccc4ncccc4c3)c2)[nH]1 : its IC50 reads 17500

# IC50 (molecule: Cc1nn(C)cc1-c1cc(-c2ccc3ccccc3c2)cc(-c2nnc(SCC(=O)O)[nH]2)c1 ) is 748

Kindly note the recorded IC50 for O=C(O)CSc1nnc(-c2cc(-c3cccc(O)c3)cc([N+](=O)[O-])c2)[nH]1 , which is 212

Given item Cn1ccc2c(-c3cc(-c4nnc(SCC(=O)O)[nH]4)cc([N+](=O)[O-])c3)cccc21 , the value recorded as its IC50 is 140

response.value for Cn1ccc2cc(-c3cc(-c4nnc(SCC(=O)O)[nH]4)cc(C(F)(F)F)c3)ccc21 (field: IC50) = 729

Recorded IC50 (molecule COc1ccncc1-c1cc(-c2ccc3ccccc3c2)cc(-c2nnc(SCC(=O)O)[nH]2)c1 ): 352
